Reference source: patent US20240368263A1

Target: T1, Fas/TNFSF6 (R&D Systems, cat. no. 126-FL/CF) (UniProt P48023 134-281)
T1 sequence (looked up): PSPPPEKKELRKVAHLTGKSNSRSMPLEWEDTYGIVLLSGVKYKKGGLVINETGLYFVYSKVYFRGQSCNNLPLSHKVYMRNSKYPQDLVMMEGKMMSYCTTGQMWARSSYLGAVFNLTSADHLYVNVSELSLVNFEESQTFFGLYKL
Experiment: ELISA, antigen coated at 1 µg/ml, Fab titrated

BINDER | binding result
Clone 34 Fab (Fab, V domains shown, Fab; also called variant 34) VH: QVQLVQSGAEVKKPGASVKVSCKASGFDIQDTYMHWVRQAPGQGLEWMGRIEPASGHIKYDPKFQGRVTMTRDTSTSTVYMELSSLRSEDTAVYYCARSGGLPDWWGQGTTVTVSS VL: EIVLTQSPGTLSLSPGERATLSCRASSSVSYMYWYQQKPGQAPRLLIYATSNLASGIPDRFSGSGSGTDFTLTISRLEPEDFAVYYCQQWEGNPRTFGGGTKLEIK | no binding
Clone 3-17L V-A Fab (Fab, V domains shown, Fab) VH: QVQLVQSGAEVKKPGASVKVSCKASGFDIQDTYMHWVRQAPGQGLEWMGRIDPASGHLKYDPKFQGRVTITRDTSASTAYMELSSLRSEDTAVYYCARSGGLPDMWGQGTTVTVSS VL: EIVLTQSPGTLSLSPGERATLSCRASSSVSYMYWYQQKPGQAPRLLIYATSNLASGIPDRFSGSGSGTDFTLTISRLEPEDFAVYYCQQWQGNPRTFGGGTKLEIK | no binding
Clone X-V Fab (Fab, V domains shown, Fab) VH: QVQLVQSGAEVKKPGASVKVSCKASGFDIQDTYMHWVRQAPGQGLEWMGRIDPASGHTKYDPKFQVRATITTDTSASTAYLQLSSLRSEDTAVYYCARSGGLPDFWGQGTTVTVSS VL: EIVLTQSPGTLSLSPGERATLSCRASSSVSYMYWYQQKPGQAPRLLIYATSNLASGIPDRFSGSGSGTDFTLTISRLEPEDFAVYYCQQWSGNPRTFGGGTKLEIK | no binding
